Where do these numbers come from? They come from the supplement of paper PMC4862054.

Let's look at some molecules and their measured normalised viability.
Test system: CAL-120
test-summary: normalised viability (% of control), CellTiter-Blue; higher = more viable cells (about 100 = DMSO control)
test-settings: 100 nM; incubation time: 72 h
Your answer should be a plain number; it is taken to be in %.

Would you please look over these solved cases?
molecule	experimental-readout	number
CN(Cc1cnc2nc(N)nc(N)c2n1)c1ccc(C(=O)N[C@@H](CCC(=O)O)C(=O)O)cc1 [Methotrexate]	normalised viability	50.4
C=CCn1c(=O)c2cnc(Nc3ccc(N4CCN(C)CC4)cc3)nc2n1-c1cccc(C(C)(C)O)n1	normalised viability	75.8
COc1c2occc2cc2ccc(=O)oc12	normalised viability	106

Please find the next molecule below.
Q: Complete the entry with normalised viability for `CC1(C)CCC(c2ccc(Cl)cc2)=C(CN2CCN(c3ccc(C(=O)NS(=O)(=O)c4ccc(N[C@H](CCN5CCOCC5)CSc5ccccc5)c(S(=O)(=O)C(F)(F)F)c4)cc3)CC2)C1`
Ans: 61.3
